# experimentalTarget: GABA-A receptor; alpha-5/beta-3/gamma-2 (Homo sapiens, UniProt P18507+P28472+P31644)
# assaySummary: Inhibition of [3H]Ro-151788 binding to recombinant human gamma-aminobutyric-acid A receptor alpha-5-beta-3-gamma-2 subtype expressed in L (tk-) cells
pKi: −log10 of the molar value.
# if value of pKi reaches 8, tag met; if it stays below, tag not met

Q) Test whether the compound c1ccc(-c2nnc3c4c(c(COc5ccccn5)nn23)C2CCC4CC2)cc1 records pKi of 8 or higher.
A) not met

====

# experimentalTarget: GABA-A receptor; alpha-2/beta-3/gamma-2 (Homo sapiens, UniProt P18507+P28472+P47869)
# Sequence (P18507 whole entry): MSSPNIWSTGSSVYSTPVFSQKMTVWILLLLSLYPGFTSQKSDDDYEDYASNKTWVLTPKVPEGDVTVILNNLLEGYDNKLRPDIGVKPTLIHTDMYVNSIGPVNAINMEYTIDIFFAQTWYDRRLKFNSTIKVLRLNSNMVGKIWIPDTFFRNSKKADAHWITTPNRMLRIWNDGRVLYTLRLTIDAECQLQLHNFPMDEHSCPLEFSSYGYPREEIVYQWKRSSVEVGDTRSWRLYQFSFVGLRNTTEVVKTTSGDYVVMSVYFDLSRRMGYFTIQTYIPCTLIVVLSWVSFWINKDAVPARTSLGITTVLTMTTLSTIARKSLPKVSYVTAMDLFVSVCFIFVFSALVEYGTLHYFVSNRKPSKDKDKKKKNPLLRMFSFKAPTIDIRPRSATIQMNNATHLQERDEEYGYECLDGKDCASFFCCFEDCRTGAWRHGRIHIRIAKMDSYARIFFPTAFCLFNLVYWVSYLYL
# Sequence (P28472 whole entry): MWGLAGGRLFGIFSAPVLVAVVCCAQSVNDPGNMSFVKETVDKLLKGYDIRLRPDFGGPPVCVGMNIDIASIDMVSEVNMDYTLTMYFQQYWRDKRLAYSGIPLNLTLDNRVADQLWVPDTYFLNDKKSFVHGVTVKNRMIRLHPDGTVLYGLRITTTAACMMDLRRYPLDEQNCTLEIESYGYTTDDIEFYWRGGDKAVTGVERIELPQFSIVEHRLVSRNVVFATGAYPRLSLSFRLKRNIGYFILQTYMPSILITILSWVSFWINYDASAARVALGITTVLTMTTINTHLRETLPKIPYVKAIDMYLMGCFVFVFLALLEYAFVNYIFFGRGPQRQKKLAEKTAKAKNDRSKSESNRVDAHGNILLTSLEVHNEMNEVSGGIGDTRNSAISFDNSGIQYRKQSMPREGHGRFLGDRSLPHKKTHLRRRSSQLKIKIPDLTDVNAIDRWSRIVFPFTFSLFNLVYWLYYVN
# Sequence (P47869 whole entry): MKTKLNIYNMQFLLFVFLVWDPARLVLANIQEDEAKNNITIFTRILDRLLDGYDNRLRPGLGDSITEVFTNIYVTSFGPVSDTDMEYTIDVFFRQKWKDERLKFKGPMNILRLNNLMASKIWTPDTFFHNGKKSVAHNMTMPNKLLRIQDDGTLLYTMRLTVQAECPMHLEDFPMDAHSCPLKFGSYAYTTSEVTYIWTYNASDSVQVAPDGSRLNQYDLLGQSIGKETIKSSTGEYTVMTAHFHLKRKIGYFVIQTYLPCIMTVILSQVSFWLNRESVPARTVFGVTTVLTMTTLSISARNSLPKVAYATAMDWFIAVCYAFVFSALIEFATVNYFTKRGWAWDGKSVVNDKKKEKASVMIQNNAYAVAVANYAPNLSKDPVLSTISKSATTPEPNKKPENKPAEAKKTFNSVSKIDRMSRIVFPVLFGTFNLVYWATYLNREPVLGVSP
# assaySummary: Inhibition of [3H]Ro-151788 binding to recombinant human gamma-aminobutyric acid A receptor alpha-2-beta-3-gamma-2 subtype expressed in L (tk-) cells
quantityMeasured: pKi
A value of pKi is the negative decimal logarithm of a concentration given in moles per litre.

Below, 3 compounds whose answers are already recorded.
compound | observedResult
Cc1conc1COc1nn2c(-c3ccccc3)nnc2c2c1C1CCC2CC1 | 7.46
Cn1nnnc1COc1nn2c(-c3ccccc3)nnc2c2c1C1CCC2CC1 | 7.23
Clc1ccc(COc2nn3c(-c4ccccc4)nnc3c3c2C2CCC3CC2)nn1 | 7.38

Q) Fill in the blank: the reported pKi of Cc1c[nH]c(COc2nn3c(-c4ccccc4)nnc3c3c2C2CCC3CC2)n1 is ____.
A) 7.82

Q) Record: Cc1cccc(CCCOc2nn3c(-c4ccccc4)nnc3c3c2C2CCC3CC2)n1
A) 6.72

Q) Record: Cn1ccnc1COc1nn2c(-c3ccccc3)nnc2c2c1C1CCC2CC1
A) 8.15

Q) Record: CN(C)C(=O)COc1nn2c(-c3ccccc3)nnc2c2c1C1CCC2CC1
A) 6.80

Q) Record: Cc1nnc2ccc(-c3cccc(C(F)(F)F)c3)nn12
A) 6.14

Q) Record: N#Cc1ccc(COc2nn3c(-c4ccccc4)nnc3c3c2C2CCC3CC2)cc1
A) 6.96
